# Test system: SW-620
# protocol_description: NCI tumour cell line growth inhibition, 48 h
Activity calls are given as the source filed them. No stated cut-off is given here; in the data, active = GI50 up to about 1.1 µM and inactive = higher.
Listing of entries alongside the reported GI50.

Example results:
* CC1CN=C(Nc2ccc(S(N)(=O)=O)cc2)S1 (stereo not given) | > 100 µM (inactive)
* CCOC(=O)NCC(=O)NCC(=O)NCC(N)=O | > 100 µM (inactive)
* Brc1ccccc1-c1ncc(-c2ccccc2)o1 | 35.6 µM (inactive)
* CCCCOC(=O)C1CC[C@H]2[C@@H]3CCc4cc(OC(=O)c5cccc6c(=O)c7ccccc7[nH]c56)ccc4[C@H]3CC[C@]12C (stereo not given in full) | 12.4 µM (inactive)
* Oc1ccc(Nc2nc(Cl)c3nc[nH]c3n2)cc1 | > 100 µM (inactive)
* Cn1nc(-c2ccccc2)c(C(=O)/C=C/c2ccc(F)cc2)c(N2CCCC2)c1=O | 15.6 µM (inactive)
* CC1=C(C(=O)OCCc2ccc([N+](=O)[O-])cc2)C(c2ccccc2[N+](=O)[O-])C(C(=O)OC(C)C)=C(C)N1 (stereo not given) | 6.89 µM (inactive)
* O=C(Cc1ccccc1)N/N=C/c1ccccc1O | 19.3 µM (inactive)
* NCc1ccc(O)c(O)c1 | > 100 µM (inactive)

Proceeding to the next compound to report its GI50.
Param readout= GI50; system= SW-620; entry= COC(=O)C1Cc2c([nH]c3ccccc23)C(c2ccccc2O)N1Cc1ccccc1 (stereo not given) ; returns value.
39.5 µM (inactive)

###

# System: KM12
# protocol_description: NCI tumour cell line growth inhibition, 48 h
Activity calls are given as the source filed them. Rule as the data show it: active = GI50 up to about 1.1 µM and inactive = higher.
Listing of entries alongside the reported GI50.

Example results:
* O=C1CC(C(CC(=O)c2ccccc2)c2ccccc2)C(=O)c2ccccc2N1 (stereo unspecified) | 49.7 µM (inactive)
* COc1c(C)c(C/C=C(\C)CCCCO)c(OC)c2ccccc12 | 23.9 µM (inactive)
* CC1(C)C(=O)N=C(N)N1C(=O)OCc1ccccc1 | > 100 µM (inactive)
* CN1CCN(CN2C(=O)C3C4C=CC(C3C2=O)C2C(=O)N(CN3CCN(C)CC3)C(=O)C42)CC1 (stereo unspecified) | 56.5 µM (inactive)
* c1ccc(C2=NN(c3ccccc3)C3(S2)SC(c2ccccc2)(c2ccccc2)c2ccccc23)cc1 (stereo unspecified) | > 100 µM (inactive)
* CC#CC1C2CCCC1(CSc1ccccc1)NC(=O)O2 (stereo unspecified) | > 100 µM (inactive)
* CCN(CC)C(=S)N/N=C(\C)c1ccccc1O | 15.5 µM (inactive)
* CC(=O)OCC1OC(n2c(C)cc(C)c(C#N)c2=S)C(OC(C)=O)C(OC(C)=O)C1OC(C)=O (stereo unspecified) | > 100 µM (inactive)
* CSC1C(=O)Nc2ccc3ccccc3c21 (stereo unspecified) | 18.6 µM (inactive)
* COc1ccc2cc(NC(=O)N/N=C\c3ccc(Cl)cc3)ccc2c1 | > 100 µM (inactive)

Proceeding to the next molecule to report its GI50.
Requested field: GI50. Item: CC1C2CC(CC23OCC(CCl)O3)C1(C)C (stereo unspecified)
> 100 µM (inactive)

###

# Test system: MDA-N
# protocol_description: NCI tumour cell line growth inhibition, 48 h
The source made the active and inactive calls. No stated cut-off is given here; in the data, active = GI50 up to about 1.1 µM and inactive = higher.
Your response should consist of one outcome taken from active, inactive

* CNC(=O)C(C)C1C(=O)/C(=C(O)/C=C\C(C)=C\C(C)C2OC3(C)OC(C=CC34CO4)C2C)C(=O)N1C1CCC(O)C(C)O1 (stereo not drawn) | inactive

What did this assay record as the result for NCc1ccc(O)c(O)c1 ?
inactive

What did this assay record as the result for Cc1cccc2c1[C@]13OC(C)[C@]4(C)CC5OC(=O)[C@@]1(C)[C@@H]5[C@]34C(=O)O2 (stereo partly drawn) ?
inactive

Origin of values: ChEMBL document CHEMBL1201862
